target_desc: Adenosine receptor A2b (Homo sapiens) (UniProt P29275)
Sequence (P29275 whole entry): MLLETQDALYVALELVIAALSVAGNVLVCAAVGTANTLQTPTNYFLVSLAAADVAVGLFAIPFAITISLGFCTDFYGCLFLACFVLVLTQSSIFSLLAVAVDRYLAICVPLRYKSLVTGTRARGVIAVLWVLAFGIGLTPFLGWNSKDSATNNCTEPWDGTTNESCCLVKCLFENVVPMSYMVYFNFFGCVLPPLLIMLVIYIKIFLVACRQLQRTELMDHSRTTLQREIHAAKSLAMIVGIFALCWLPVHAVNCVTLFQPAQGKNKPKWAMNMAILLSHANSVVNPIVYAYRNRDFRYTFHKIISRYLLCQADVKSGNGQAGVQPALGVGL
assay_comment: Displacement of [125I]3-(4-aminobenzyl)-8-phenyloxyacetate-1-propyl-xanthine from human adenosine A2B receptor expressed in HEK cells relative to control
Type: cell-based
Set-up: concentration or dose not given beside the values
assay_context: HEK293
Could you mark each record yes if its Activity falls strictly under 20%, and no if it equals or exceeds it?

These recorded examples may help you get a feel for the data.
structure_smiles: CCCCNC(=O)[C@H]1CC[C@H](c2nc3c(=O)n(CCC)c(=O)n(CCC)c3[nH]2)CC1
target_desc: Adenosine receptor A2b (Homo sapiens) (UniProt P29275)
qualitative_label: yes

structure_smiles: CCCn1c(=O)c2nc([C@H]3CC[C@H](CO)CC3)[nH]c2n(CCC)c1=O
target_desc: Adenosine receptor A2b (Homo sapiens) (UniProt P29275)
qualitative_label: yes

structure_smiles: CCCn1c(=O)c2nc([C@]34CC[C@](C(=O)N5CCC(C(=O)O)CC5)(CC3)CC4)[nH]c2n(CCC)c1=O
target_desc: Adenosine receptor A2b (Homo sapiens) (UniProt P29275)
qualitative_label: no

structure_smiles: CCCn1c(=O)c2nc([C@]34CC[C@](C(=O)OC)(CC3)CC4)[nH]c2n(CCC)c1=O
target_desc: Adenosine receptor A2b (Homo sapiens) (UniProt P29275)
qualitative_label: yes

Task: Quick check: Activity of CCCCC[C@]12CC[C@](c3nc4c(=O)n(CCC)c(=O)n(CCC)c4[nH]3)(CC1)CC2 under 20%?
Output: no
